Biological target: T1, ALKBH3 H191A (Homo sapiens, UniProt Q96Q83 1-286, H191A)
T1 sequence: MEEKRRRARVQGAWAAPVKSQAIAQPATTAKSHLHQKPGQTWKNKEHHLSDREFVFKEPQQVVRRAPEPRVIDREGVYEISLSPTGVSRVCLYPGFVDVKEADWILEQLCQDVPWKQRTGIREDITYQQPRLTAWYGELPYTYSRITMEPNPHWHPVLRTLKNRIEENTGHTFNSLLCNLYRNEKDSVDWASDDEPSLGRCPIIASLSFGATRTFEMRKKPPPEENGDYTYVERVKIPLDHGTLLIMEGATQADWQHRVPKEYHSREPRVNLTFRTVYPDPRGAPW
Experiment: intrinsic Trp fluorescence titration; apoprotein, 2 mM EDTA, no Fe(II)/2OG; Titration: 50 mM HEPES-KOH pH 7.8, 50 mM KCl, 10 mM MgCl2, 2 mM EDTA, 25 °C, 1 µM apoprotein; stopped-flow: with Fe(II) and 2OG, 0.5-4.0 µM DNA (buffer not in material)
Conditions: protein: recombinant; (Ni-chelating purification); single strand
property.name: Kd

QUERY: Name the recorded Kd for ACAGGATCCGGCATA (ssDNA, N3-methylcytosine at position 9) [m3C] .
RESULT: 4.3 µM

Hey, just so you know, these numbers are from paper PMC10816986.
